conditions_used: in water, 303.15 K
reported_property: solubility (mole fraction)
Give bare numbers.

Please report solubility (mole fraction) for every entry that follows.
1. Nc1ccc(S(=O)(=O)Nc2cc(Cl)ccc2Cl)cc1
2. Nc1ccc(S(=O)(=O)Nc2ccccc2Cl)c(Cl)c1
3. Cc1ccc(NS(=O)(=O)c2ccc(N)cc2)cc1Cl
4. Cc1ccc(Cl)cc1NS(=O)(=O)c1ccc(N)cc1
5. Nc1ccc(S(=O)(=O)Nc2ccc(Cl)cc2)cc1

RESULT:
1. 8.98e-07
2. 1.35e-07
3. 1.79e-07
4. 1.03e-06
5. 1.51e-06

List the reported solubility (mole fraction) of each molecule below.
1. Nc1ccc(S(=O)(=O)Nc2cc(Cl)c(Cl)cc2Cl)cc1
2. Cc1cc(N)ccc1S(=O)(=O)Nc1ccc(Cl)cc1
3. Cc1cc(Cl)ccc1NS(=O)(=O)c1ccc(N)cc1

RESULT:
1: 2.74e-07; 2: 9.04e-07; 3: 2.11e-06

----------
conditions_used: in water, 298.15 K
reported_property: solubility (mole fraction)
Answers are plain numbers.

input_smiles: Nc1ccc(S(=O)(=O)Nc2ccc(Cl)c(Cl)c2)cc1
value_measured: 2.05e-07
//
input_smiles: Nc1ccc(S(=O)(=O)Nc2cc(Cl)c(Cl)cc2Cl)cc1
value_measured: 2.51e-07
//
input_smiles: Nc1ccc(S(=O)(=O)Nc2ccccc2Cl)c(Cl)c1
value_measured: 1.19e-07
//
input_smiles: Cc1cc(N)ccc1S(=O)(=O)Nc1ccccc1Cl
value_measured: 1.57e-07
//
input_smiles: Cc1ccc(NS(=O)(=O)c2ccc(N)cc2)c(Cl)c1
value_measured: 7.65e-07

QUERY: Quote solubility (mole fraction) reported for Nc1ccc(S(=O)(=O)Nc2ccc(Cl)cc2)cc1 please.
RESULT: 1.19e-06

The origin of these recorded values is BigSolDB 2.1.
